- condition_set: in methyl acetate, 323.15 K
readout_kind: solubility (mole fraction)
Reply with the value as a number alone.

Exercise: Reported solubility (mole fraction), compound CC(=O)N[C@@H](Cc1ccc(O)cc1)C(=O)O : ____
Key: 0.0162

###

- condition_set: in isopentanol, 303.15 K
readout_kind: solubility (mole fraction)
Reply with the value as a number alone.

Exercise: Reported solubility (mole fraction), compound CC(=O)N[C@@H](Cc1ccc(O)cc1)C(=O)O : ____
Key: 0.0568

###

- condition_set: in isopentanol, 313.15 K
readout_kind: solubility (mole fraction)
Reply with the value as a number alone.

Exercise: Reported solubility (mole fraction), compound CC(=O)N[C@@H](Cc1ccc(O)cc1)C(=O)O : ____
Key: 0.0635

###

- condition_set: in acetone, 298.15 K
readout_kind: solubility (mole fraction)
Reply with the value as a number alone.

Exercise: Reported solubility (mole fraction), compound CC(=O)N[C@@H](Cc1ccc(O)cc1)C(=O)O : ____
Key: 0.136

###

- condition_set: in ethyl acetate, 313.15 K
readout_kind: solubility (mole fraction)
Reply with the value as a number alone.

Exercise: Reported solubility (mole fraction), compound CC(=O)N[C@@H](Cc1ccc(O)cc1)C(=O)O : ____
Key: 0.0073

###

- condition_set: in acetone, 283.15 K
readout_kind: solubility (mole fraction)
Reply with the value as a number alone.

Exercise: Reported solubility (mole fraction), compound CC(=O)N[C@@H](Cc1ccc(O)cc1)C(=O)O : ____
Key: 0.106

###

- condition_set: in sec-butanol, 303.15 K
readout_kind: solubility (mole fraction)
Reply with the value as a number alone.

Exercise: Reported solubility (mole fraction), compound CC(=O)N[C@@H](Cc1ccc(O)cc1)C(=O)O : ____
Key: 0.113

###

- condition_set: in water, 303.15 K
readout_kind: solubility (mole fraction)
Reply with the value as a number alone.

Exercise: Reported solubility (mole fraction), compound CC(=O)N[C@@H](Cc1ccc(O)cc1)C(=O)O : ____
Key: 0.021

###

- condition_set: in isopentanol, 323.15 K
readout_kind: solubility (mole fraction)
Reply with the value as a number alone.

Exercise: Reported solubility (mole fraction), compound CC(=O)N[C@@H](Cc1ccc(O)cc1)C(=O)O : ____
Key: 0.0807

###

- condition_set: in isopentanol, 298.15 K
readout_kind: solubility (mole fraction)
Reply with the value as a number alone.

Exercise: Reported solubility (mole fraction), compound CC(=O)N[C@@H](Cc1ccc(O)cc1)C(=O)O : ____
Key: 0.05

###

- condition_set: in n-propyl acetate, 283.15 K
readout_kind: solubility (mole fraction)

Exercise: Reported solubility (mole fraction), compound CC(=O)N[C@@H](Cc1ccc(O)cc1)C(=O)O : ____
Key: 0.00163

###

- condition_set: in methyl acetate, 303.15 K
readout_kind: solubility (mole fraction)
Reply with the value as a number alone.

Exercise: Reported solubility (mole fraction), compound CC(=O)N[C@@H](Cc1ccc(O)cc1)C(=O)O : ____
Key: 0.0085

###

- condition_set: in methyl acetate, 313.15 K
readout_kind: solubility (mole fraction)
Reply with the value as a number alone.

Exercise: Reported solubility (mole fraction), compound CC(=O)N[C@@H](Cc1ccc(O)cc1)C(=O)O : ____
Key: 0.0115

###

- condition_set: in isobutanol, 293.15 K
readout_kind: solubility (mole fraction)
Reply with the value as a number alone.

Exercise: Reported solubility (mole fraction), compound CC(=O)N[C@@H](Cc1ccc(O)cc1)C(=O)O : ____
Key: 0.0468

All values here come from BigSolDB 2.1.
